test system: TK-10 renal; test: NCI tumour cell line growth inhibition, 48 h
MEASURED ATTRIBUTE: GI50

Kindly indicate its recorded GI50. Item: CN(CCCN(C)CCC1CCCCC1)CCC1CCCCC1
1.62 µM

Kindly indicate its recorded GI50. Item: Cc1ccc(S(=O)(=O)Nc2cc(Sc3ccccc3)c(O)c3ccccc23)cc1
17.5 µM

Kindly indicate its recorded GI50. Item: COc1ccc2c(c1)C=C1CSCC3=Cc4cc(OC)ccc4OC13O2
> 100 µM

Kindly indicate its recorded GI50. Item: CN(C)c1ncnc2c1ccn2C1OC(CO)C(O)C1O (stereo not given)
1.83 µM

Kindly indicate its recorded GI50. Item: CN(C)N=Nc1nn(C(=O)Nc2ccc(Cc3ccccc3)cc2)c2ccccc12
> 100 µM

Kindly indicate its recorded GI50. Item: Cc1ccc(-c2c3c(N)c4c(nc3nc3c2c(C)nn3-c2ccccc2)CCC4)cc1
2.43 µM

Kindly indicate its recorded GI50. Item: Cc1cc(Cl)ccc1Nc1nc(C(F)(F)F)ccc1C(=O)Nc1cccc(C(F)(F)F)c1
4.4 µM

Kindly indicate its recorded GI50. Item: Cc1c(C(N)=O)sc2c1c(=O)n(Cc1ccccc1)c1nnc(S(=O)(=O)CC(=O)Nc3ccc(Cl)cc3)n21
4.38 µM

Kindly indicate its recorded GI50. Item: CNc1ncc2cc(Oc3ccc(F)cc3F)c(=O)n(C)c2n1
> 23.1 µM

Kindly indicate its recorded GI50. Item: O=C1C=C(OCCCl)C(=O)c2c(O)ccc(O)c21
3 µM

###

test system: UO-31 renal; experiment: NCI tumour cell line growth inhibition, 48 h
MEASURED ATTRIBUTE: TGI

Kindly indicate its recorded TGI. Item: CC1(C)CC2(C)ON=C(c3ccccc3)N2c2ccccc2N1 (stereo not drawn)
43.6 µM

Kindly indicate its recorded TGI. Item: CCOC(=O)/C(=N/Nc1ccc(Cl)cc1)N1C(=S)C=C(C)NN(C)C1=S
> 100 µM

Kindly indicate its recorded TGI. Item: O=c1c(Sc2ncccn2)c(Sc2ncccn2)cnn1CCl
3.45 µM

Kindly indicate its recorded TGI. Item: CC(=O)O[C@H]1CC[C@@]2(C)C(=C/C(=N\[N+](=O)[O-])[C@H]3C4CCC([C@H](C)CCCC(C)C)[C@@]4(C)CCC32)C1 (stereo partly drawn)
> 100 µM

Kindly indicate its recorded TGI. Item: COC1C(OC(N)=O)C(O)C(Oc2ccc3c(O)c(NC(=O)c4ccc(O)c(CC=C(C)C)c4)c(=O)oc3c2C)OC1(C)C (stereo not drawn)
> 100 µM

Kindly indicate its recorded TGI. Item: C#CC(O)Cc1ccc(OC)c2occc12 (stereo not drawn)
> 100 µM

Kindly indicate its recorded TGI. Item: CC/C=C/C(/C=C/C[C@]1(CC)C[C@H](CC)[C@H](CC(=O)O)OO1)CC (stereo partly drawn)
0.947 µM

Kindly indicate its recorded TGI. Item: Cc1cc(Cl)ccc1Nc1nc(C(F)(F)F)ccc1C(=O)Nc1cccc(C(F)(F)F)c1
16 µM

Kindly indicate its recorded TGI. Item: NC(=O)N/N=C(\CCC(=O)N(Cc1ccccc1)Cc1ccccc1)CC(=O)c1ccc(F)cc1
> 100 µM

Kindly indicate its recorded TGI. Item: Cc1cccc(N=C2NC(=O)C(CC(=O)Nc3ccccc3Cl)S2)c1 (stereo not drawn)
> 100 µM

Kindly indicate its recorded TGI. Item: Oc1ccccc1-n1nc2ccc3nonc3c2n1
> 100 µM

Kindly indicate its recorded TGI. Item: CC(=O)C1C(=O)C(=O)N(c2ccc(Br)cc2)C1=O (stereo not drawn)
> 100 µM

Kindly indicate its recorded TGI. Item: O=C(NN1C(=O)CSC12CCC(c1ccccc1)CC2)c1[nH]c2ccc(F)cc2c1-c1ccccc1 (stereo not drawn)
31 µM
